test system: MALME-3M melanoma; test: NCI tumour cell line growth inhibition, 48 h
Each entry below carries its recorded TGI.
Unit µM implied. Number only.

CCOC(=O)C(NCc1cccc(C(F)(F)F)c1)(NC(=O)c1ccccc1)C(F)(F)F (stereo not given) : 69
CCOC(=O)C1=C(c2ccccc2)N(c2ccc(OC)cc2)[C@]2(C#N)C(O)=C(Cl)C(Cl)=C(O)[C@]12C#N : 42.6
Oc1cc(Cl)ccc1Cc1ccc(Cl)cc1O : 19.2
COc1ccc(-c2ccccc2)cc1-c1c(Nc2cc(Cl)cc(Cl)c2O)c(=O)c1=O : 3.5

Could you now look at the following compound, please?
QUERY: Provide only the value of recorded TGI for "COc1ccc2c(c1)C(=O)c1c-2n(CCCN2CCOCC2)c(=O)c2cc([N+](=O)[O-])ccc12"
RESULT: 0.779

----------
system: HCC-2998 colon; assay: NCI tumour cell line growth inhibition, 48 h
Each entry below carries its recorded TGI.

COc1cc(OC)cc(-c2cncn2-c2ccc(-c3nc4cc(OC)cc(OC)c4s3)cc2)c1 : > 100 µM
Cc1ccc2nc(Cl)c(/C=N/N3C(=O)/C(=C/c4ccc(N(C)C)cc4)N=C3c3ccccc3)cc2c1 : > 100 µM
COC(=O)CCN(CCC(=O)OC)C1CC1 : > 100 µM
CC(=O)NC1=CC(=O)c2cc(C)cc(O)c2C1=O : 5.69 µM

Could you now look at the following compound, please?
QUERY: Provide only the value of recorded TGI for CC(C)=CC1CC(C)C2(CCC3(C)CC4C(C(=O)CC4(C)O)/C(C=O)=C\CC32)O1 (stereo not given)
RESULT: 0.328 µM

----------
Each entry below carries its recorded log10 TGI.
tested on: 786-0 renal; experiment: NCI tumour cell line growth inhibition, 48 h
Scale: log10; quantity: TGI; unit before log: µM

Completed entries (count: 8):
COc1cc2c(cc1OC)-c1c(c3ccc([N+](=O)[O-])cc3c(=O)n1CCCN)C2=O : 0.26
CCOC(=O)C1=C(c2ccccc2)N(c2ccc(OC)cc2)[C@]2(C#N)C(O)=C(Cl)C(Cl)=C(O)[C@]12C#N : 1.65
Clc1ncnc2c1ncn2CCCCCCCCCCCCn1cnc2c(Cl)ncnc21 : 1.86
NC1=C(Cl)C(=O)c2ccccc2C1=O : 1.31
COC(=O)[C@]12CC=C3O[C@@H]4OC5(CCCCC5)O[C@@H]4[C@H]3C1C(=O)C=CC2=O (stereo not given in full) : 1.49
CN(C)CCn1c(=O)c2ccc3c4c(nn3CCN(C)C)c3ccccc3n(c1=O)c24 : -0.02
CCCCCCOc1ccc(NC2=C(Cl)C(=O)c3ncccc3C2=O)cc1 : 0.76
COC(=O)[C@@H]1CCCN1C(=O)[C@H]1CCCN1C(=O)[C@@H](Cc1c[nH]c2ccccc12)NC(=S)Nc1cc(C(F)(F)F)cc(C(F)(F)F)c1 : 1.31

QUERY: Provide only the value of recorded log10 TGI for Cc1cc2c(cc1Br)C1(C)CCC(C)C1(C)O2 (stereo not given)
RESULT: 1.82

----------
Each entry below carries its recorded TGI.
test system: DMS 273 small cell lung; assay: NCI tumour cell line growth inhibition, 48 h

O=CN1CCN(C=S)CC1 : > 100 µM
NC1=C(Cl)C(=O)c2ccccc2C1=O : 18.9 µM
NC(=O)c1c2c(cc3c(=O)c4ccccc4[nH]c13)CCCC2 : > 100 µM
Cc1cc(N=C2C=C(Nc3cc(C)on3)C(=O)c3ccccc32)no1 : > 100 µM

QUERY: Provide only the value of recorded TGI for CN1CCCCC(C(O)(c2ccccc2)c2ccccc2)C1=O (stereo not drawn)
RESULT: > 100 µM

QUERY: Provide only the value of recorded TGI for COc1cc2c(c(OC)c1OC)-c1ccc(SC)c(=O)cc1C(CC(=O)Oc1cccc(C#N)c1)C2 (stereo not drawn)
RESULT: > 100 µM

QUERY: Provide only the value of recorded TGI for CC1=CC2CC(C)C1(C)CCc1ccoc12 (stereo not drawn)
RESULT: > 100 µM

QUERY: Provide only the value of recorded TGI for CC(=O)O[C@H]1CC[C@@]2(C)C(=CC[C@@H]3C2CC[C@]2(C)Nc4[nH]ncc4CC32)C1 (stereo partly drawn)
RESULT: 31.8 µM

QUERY: Provide only the value of recorded TGI for "CC(=O)Nc1ccc(-c2nnc(SCC(=O)Nc3ccccc3C)o2)cc1"
RESULT: > 100 µM

QUERY: Provide only the value of recorded TGI for COC(=O)C1=Cc2c(cc(OC)c(OC)c2OC)[C@H](c2ccc(OC)c(OC)c2OC)C1C(=O)OC (stereo partly drawn)
RESULT: > 100 µM

QUERY: Provide only the value of recorded TGI for Cn1c(=O)oc2cc(C3CCC(=O)N3Cc3ccc(Cl)cc3)ccc21 (stereo not drawn)
RESULT: > 100 µM

QUERY: Provide only the value of recorded TGI for "COc1ccccc1NC(=O)CC(=O)NNCC(=O)Nc1nnc(-c2ccccc2)o1"
RESULT: > 100 µM

QUERY: Provide only the value of recorded TGI for C=CCN(CC=C)CC(C(C)=O)C(c1ccccc1)c1c(O)c2ccccc2oc1=O (stereo not drawn)
RESULT: > 100 µM
